System: Amaranthus retoflexus (AMARE)
Experiment: Pre-emergence herbicidal glasshouse test on Amaranthus retoflexus
Assay type: in vivo
Details: pre-emergence; 1000 g/h; evaluated after 13 days
Assay readout: PRE Application AMARE herbicidal damage (five point scale)

The examples below pair each entry with its known result.
1. Cn1ncc(-c2cc(OC(F)(F)F)ccc2Cl)c(O)c1=O :: 1 (1=0-19% damage)
2. Cn1ncc(-c2ccccc2S(C)(=O)=O)c(O)c1=O :: 5 (5=80-100% damage)
3. Cc1cc(F)ccc1-c1cnn(C)c(=O)c1O :: 1 (1=0-19% damage)
4. CC[S+]([O-])c1ccccc1-c1cnn(C)c(=O)c1O (stereo not drawn) :: 4 (4=60-79% damage)

Please give measured PRE Application AMARE herbicidal damage (five point scale) of the following entry: Cn1ncc(-c2ccc(S(=O)(=O)N3CCOCC3)cc2S(C)(=O)=O)c(O)c1=O 5 (5=80-100% damage)
